Target: Peroxisome proliferator-activated receptor alpha (Homo sapiens, UniProt Q07869)
Sequence (Q07869 whole entry): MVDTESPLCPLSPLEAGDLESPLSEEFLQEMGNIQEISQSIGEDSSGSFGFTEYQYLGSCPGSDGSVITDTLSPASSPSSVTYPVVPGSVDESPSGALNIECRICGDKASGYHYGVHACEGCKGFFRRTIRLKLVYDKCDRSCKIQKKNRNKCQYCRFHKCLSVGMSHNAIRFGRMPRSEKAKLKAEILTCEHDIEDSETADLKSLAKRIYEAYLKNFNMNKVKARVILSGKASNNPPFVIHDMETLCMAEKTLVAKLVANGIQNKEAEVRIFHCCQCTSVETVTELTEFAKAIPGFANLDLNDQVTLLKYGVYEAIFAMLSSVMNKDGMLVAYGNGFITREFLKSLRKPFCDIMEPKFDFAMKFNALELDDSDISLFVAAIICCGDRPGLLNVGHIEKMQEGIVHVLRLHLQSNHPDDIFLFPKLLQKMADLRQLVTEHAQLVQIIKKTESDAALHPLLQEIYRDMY
Test: Displacement of fluorescent pan PPAR agonist form GST-tagged human PPARalpha ligand binding domain by FRET assay
Form field: IC50 (one value per entry).

>  <SMILES_STR>
CCn1c(SCC(=O)Nc2ccc(C(=O)O)cc2)nnc1-c1cc2cccc(OC)c2o1

>  <UNIT_TEXT>
nM

>  <IC50>
1000

$$$$
>  <SMILES_STR>
O=C(O)c1ccc(COc2ccc3ccccc3c2/C=N/c2ccc(N3CCOCC3)cc2)cc1

>  <UNIT_TEXT>
nM

>  <IC50>
43000

$$$$
>  <SMILES_STR>
CCOC(=O)N1CCc2c(sc(NC(=O)Cc3ccc(OC)cc3)c2C(=O)Nc2ccc(C(=O)OC)cc2)C1

>  <UNIT_TEXT>
nM

>  <IC50>
1500

$$$$

---

Target: Peroxisome proliferator-activated receptor gamma (Homo sapiens)
Sequence (P37231 whole entry): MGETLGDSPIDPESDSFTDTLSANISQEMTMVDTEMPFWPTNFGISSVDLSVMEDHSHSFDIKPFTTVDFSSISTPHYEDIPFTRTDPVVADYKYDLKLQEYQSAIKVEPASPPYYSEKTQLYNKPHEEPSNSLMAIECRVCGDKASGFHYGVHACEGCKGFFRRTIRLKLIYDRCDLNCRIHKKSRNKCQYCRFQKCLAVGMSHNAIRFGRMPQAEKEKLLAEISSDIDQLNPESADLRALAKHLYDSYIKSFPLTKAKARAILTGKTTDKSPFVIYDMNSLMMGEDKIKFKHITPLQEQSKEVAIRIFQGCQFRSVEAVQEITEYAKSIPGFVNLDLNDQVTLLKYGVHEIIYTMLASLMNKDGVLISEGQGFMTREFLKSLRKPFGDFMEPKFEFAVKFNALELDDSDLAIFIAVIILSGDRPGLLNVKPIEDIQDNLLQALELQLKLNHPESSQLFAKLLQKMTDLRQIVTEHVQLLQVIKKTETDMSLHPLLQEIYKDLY
EXPERIMENTAL_ENDPOINT: IC50

>  <SMILES_STR>
CCOC(=O)C[C@H](C)NC(=O)c1csc(C2CCN(C(=O)c3c(F)cccc3Cl)CC2)n1

>  <RESULT>
44 µM

$$$$
>  <SMILES_STR>
COC(=O)c1ccc(NC(=O)C[C@H]2C(=O)N(c3cccc(OC)c3)C(=O)N2Cc2ccc(OC)cc2)cc1

>  <RESULT>
13 µM

$$$$
